Hey, just so you know, these numbers are from patent US10385045B2.

Catalogue of compounds with associated pEC50
Subject Of Test: human EP2 receptor (Homo sapiens)
Construct: expressed in transfected cells; host or cells: CHO cells (EP2-CHO)
Test Name: Measurement of EP2 agonist activity (cAMP concentration) in EP2-CHO cells
Format: cell-based
Recorded Conditions: EP2-CHO cells, cAMP production, 30 minutes at room temperature; read-out: EC50 (agonist activity on human EP2 receptor)
Note on units: pEC50 is unitless, being -log10 of a concentration expressed in mol/L.

Completed entries (count: 5):
- Compound: "CCC1([C@@H](O)C/C=C/[C@@H]2[C@H]3CC[C@H](c4nc(C(=O)O)cs4)O[C@H]3C[C@H]2O)CCC1"
  Subject Of Test: "human EP2 receptor (Homo sapiens)"
  Result Value: 10.00
- Compound: "Cc1cc(OCC[C@@H]2[C@H]3CC[C@H](c4nc(C(=O)O)cs4)O[C@H]3C[C@H]2O)ccc1[N+](=O)[O-]"
  Subject Of Test: "human EP2 receptor (Homo sapiens)"
  Result Value: 8.24
- Compound: "O=C(O)c1csc([C@H]2CC[C@@H]3[C@@H](/C=C/C(O)CCC4CCCC4)[C@H](O)C[C@@H]3O2)n1 (stereo partly shown)"
  Subject Of Test: "human EP2 receptor (Homo sapiens)"
  Result Value: 9.96
- Compound: "N#Cc1ccc(CCC(O)/C=C/[C@@H]2[C@H]3CC[C@H](c4nc(C(=O)O)cs4)O[C@H]3C[C@H]2O)cc1 (stereo partly shown)"
  Subject Of Test: "human EP2 receptor (Homo sapiens)"
  Result Value: 9.54
- Compound: "Cc1ccc(OC/C=C/[C@@H]2[C@H]3CC[C@H](c4nc(C(=O)O)cs4)O[C@H]3C[C@H]2O)cc1"
  Subject Of Test: "human EP2 receptor (Homo sapiens)"
  Result Value: 8.24

Short answer on human EP2 receptor (Homo sapiens) for O=C(O)c1csc([C@H]2CC[C@@H]3[C@@H](/C=C/CCCOc4ccccc4)[C@H](O)C[C@@H]3O2)n1 , pEC50: 7.85

Observed pEC50 on human EP2 receptor (Homo sapiens), entry COc1ccc(OCCC/C=C/[C@@H]2[C@H]3CC[C@H](c4nc(C(=O)O)cs4)O[C@H]3C[C@H]2O)cc1 , equals 8.74

====

Subject Of Test: human EP2 receptor (Homo sapiens, UniProt P43116)
Construct: expressed in transfected cells; host or cells: CHO cells (EP2-CHO)
Sequence (P43116 whole entry): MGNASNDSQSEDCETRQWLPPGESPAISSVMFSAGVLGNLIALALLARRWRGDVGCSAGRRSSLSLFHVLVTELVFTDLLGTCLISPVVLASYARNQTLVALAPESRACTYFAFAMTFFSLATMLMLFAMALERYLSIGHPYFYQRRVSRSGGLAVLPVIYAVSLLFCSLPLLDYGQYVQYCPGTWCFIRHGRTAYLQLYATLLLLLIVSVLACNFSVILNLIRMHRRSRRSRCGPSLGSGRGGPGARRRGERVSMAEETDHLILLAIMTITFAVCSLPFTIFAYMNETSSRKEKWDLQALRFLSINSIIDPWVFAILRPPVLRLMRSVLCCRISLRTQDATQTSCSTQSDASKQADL
Test Name: Measurement of EP2 agonist activity (cAMP concentration) in EP2-CHO cells
Format: cell-based
Recorded Conditions: EP2-CHO cells, cAMP production, 30 minutes at room temperature; read-out: EC50 (agonist activity on human EP2 receptor)
Metric Name: EC50 (nM)
State just the number; it will be interpreted in nM.

- Molecule: "O=C(O)c1csc([C@H]2CC[C@@H]3[C@@H](/C=C/COc4ccccc4C(F)(F)F)[C@H](O)C[C@@H]3O2)n1 [Example 2-16]"
  Subject Of Test: "human EP2 receptor (Homo sapiens, UniProt P43116)"
  Result Value: 1.3
- Molecule: "CCCCCC(F)(F)/C=C/[C@@H]1[C@H]2CC[C@H](c3nc(C(=O)O)cs3)O[C@H]2C[C@H]1O [Example 8]"
  Subject Of Test: "human EP2 receptor (Homo sapiens, UniProt P43116)"
  Result Value: 0.4

Let us move to another entry and its EC50.
EC50 on human EP2 receptor (Homo sapiens, UniProt P43116) for O=C(O)c1csc([C@H]2CC[C@@H]3[C@@H](/C=C/CCOc4ccccc4)[C@H](O)C[C@@H]3O2)n1 [Example 2-2] is 3.9

====

# pEC50 listing for each entry below
Subject Of Test: human EP2 receptor (Homo sapiens, UniProt P43116)
Construct: expressed in transfected cells; host or cells: CHO cells (EP2-CHO)
Test Name: Measurement of EP2 agonist activity (cAMP concentration) in EP2-CHO cells
Type: cell-based
Recorded Conditions: comparison compounds from prior art documents; read-out: EC50 (EP2 agonist activity) of prior art compounds with analogous structure
pEC50: −log10 of the molar value.

// solved cases for pEC50 follow
- Molecule: "O=C(O)c1ccc(C2=CC[C@@H]3[C@@H](/C=C/[C@@H](O)C4CCCC4)[C@H](O)C[C@@H]3O2)o1 [reference compound]"
  pEC50: "≤ 5.00"
- Molecule: "O=C(O)c1csc([C@H]2CC[C@@H]3[C@@H](/C=C/[C@@H](O)COc4ccccc4)[C@H](O)C[C@@H]3OC2)n1 [reference compound]"
  pEC50: "≤ 5.00"

Field: next molecule
The molecule CCCCC[C@H](O)/C=C/[C@@H]1[C@H]2CCC(c3ccccc3CC(=O)O)O[C@H]2C[C@H]1O (stereo partly drawn) [reference compound] showed pEC50 equal to ≤ 5.00
